Cited source for all entries: patent US20240228481A1

Target: QR2 (Homo sapiens, UniProt P16083)
Sequence (P16083 whole entry): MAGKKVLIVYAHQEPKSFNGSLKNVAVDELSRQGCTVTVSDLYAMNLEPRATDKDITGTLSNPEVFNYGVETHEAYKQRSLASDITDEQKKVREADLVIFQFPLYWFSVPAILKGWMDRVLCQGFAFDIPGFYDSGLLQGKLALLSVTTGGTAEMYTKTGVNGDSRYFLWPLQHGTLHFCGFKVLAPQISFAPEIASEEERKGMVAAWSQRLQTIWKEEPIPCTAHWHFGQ
Experiment: QR2 enzymatic activity assay (menadione/BNAH), fluorescence readout
Format: biochemical
Set-up: purchased Sigma-Aldrich
Assay readout: IC50 (µM)

O=S(=O)(Nc1cccc(-c2cn3ccsc3n2)c1)c1ccc2c(c1)OCCO2: 5.62
Cc1nc(-c2ccc(C)c(S(=O)(=O)N3CCN(C(=O)c4ccco4)CC3)c2)cs1: 4.65
COc1ccc(S(=O)(=O)N2CCC(NC(=O)N3CCCC3)CC2)cc1: 2.06
Cc1cc(-c2ccc(C)c(S(=O)(=O)N(C)C)c2)n[nH]1: 0.39
Cc1ccn2cc(-c3cccc(S(=O)(=O)NCCCN4CCCC4=O)c3)nc2c1: 0.7
Cc1cccn2cc(-c3cccc(S(=O)(=O)N4CCCCCC4)c3)nc12: 0.004
Cc1cc(-c2ccc(C)c(S(=O)(=O)Nc3ccc(Cl)cc3)c2)[nH]n1: 2.36
COc1cc(Cl)c(NS(=O)(=O)c2ccc(-c3cc(C)no3)cc2OC)c(OC)c1: 3.82

(A) Cc1ccc(-c2nnc(-c3ccccc3)o2)cc1S(=O)(=O)N1CCCC1
(B) COc1ccc(OC)c(S(=O)(=O)Nc2cccc(-c3cn4c(C)csc4n3)c2)c1
(C) Cc1ccn2cc(-c3ccc(C)c(S(=O)(=O)N4CCN(C(=O)c5ccco5)CC4)c3)nc2c1
Could you please order the items by IC50, going from the lowest number to the highest? Give the labels in the order specified. C, B, A

---

Molecular target: QR1 (NQO1) (Homo sapiens, UniProt P15559)
Construct: purchased Sigma-Aldrich
Sequence (P15559 whole entry): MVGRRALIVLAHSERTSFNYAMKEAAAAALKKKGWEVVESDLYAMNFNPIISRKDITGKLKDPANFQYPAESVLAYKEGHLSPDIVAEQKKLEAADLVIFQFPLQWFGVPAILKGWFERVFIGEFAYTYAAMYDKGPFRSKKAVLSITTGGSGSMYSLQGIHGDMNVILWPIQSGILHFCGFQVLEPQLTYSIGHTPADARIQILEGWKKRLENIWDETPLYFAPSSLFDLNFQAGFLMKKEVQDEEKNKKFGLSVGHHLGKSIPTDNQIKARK
Experiment: Selectivity assay with QR1 in place of QR2, fluorescence readout
Type: biochemical
Below: a set of entries, each annotated with reported IC50.

Please review the entries below; each comes with its answer.
Cc1nc(-c2ccc(C)c(S(=O)(=O)N3CCC(C)CC3)c2)cs1 [PCM-0197104]: > 9.99 µM
Cc1cc(-c2ccc(C)c(S(=O)(=O)Nc3ccc(Cl)cc3)c2)[nH]n1 [PCM-0186036]: > 9.99 µM

Next:
Please give the measured IC50 for this compound: CCCS(=O)(=O)N1CCCc2cc(NC(=O)c3ccco3)ccc21 [PCM-0120563] > 9.9 µM

---

Below: a set of entries, each annotated with reported IC50.
Molecular target: QR1 (NQO1) (Homo sapiens, UniProt P15559)
Construct: purchased Sigma-Aldrich
Assay: Selectivity assay with QR1 in place of QR2, fluorescence readout
Type: biochemical

Please review the entries below; each comes with its answer.
Cc1cc(-c2ccc(C)c(S(=O)(=O)N3CCN(C(=O)c4ccco4)CC3)c2)n[nH]1 [PCM-0213791]: > 9.99 µM
Cc1cc(-c2ccc(C)c(S(=O)(=O)N3CCN(C(=O)c4ccco4)CC3)c2)on1 [PCM-0212388]: > 9.99 µM
Cc1ccc(-c2nnc(-c3ccccc3)o2)cc1S(=O)(=O)N1CCCCCC1 [PCM-0213797]: > 9.99 µM
Cc1ccc2nc(-c3cccc(S(=O)(=O)N4CC(C)OC(C)C4)c3)cn2c1 (stereo not drawn) [PCM-0124655]: > 9.9 µM
Cc1cccn2cc(-c3cccc(S(=O)(=O)N4CCC(C)CC4)c3)nc12 [YB-800]: > 9.99 µM

Next:
Please give the measured IC50 for this compound: Cc1cc(-c2ccc(C)c(S(=O)(=O)N3CCCCCC3)c2)[nH]n1 [PCM-0213795] > 9.99 µM
